// reported pIC50 for each item listed
MEASUREMENT_NOTES: Inhibition of RNase H activity of HIV-1 reverse transcriptase using DNA/RNA hybrid as substrate incubated for 30 mins by fluorescence based analysis
Design: species or system Human immunodeficiency virus 1
pIC50: −log10 of the molar value.

| STRUCTURE | pIC50 |
| --- | --- |
| CCCCOn1cc(CC(=O)Nc2ccncc2Cl)c2ccccc21 | < 4.00 |
| CCCOn1cc(CC(=O)Nc2ccccc2Cl)c2ccccc21 | < 4.00 |
| CCCOn1cc(CC(=O)Nc2ccncc2Cl)c2ccccc21 | < 4.00 |

INPUT: Please report the recorded pIC50 for COC(=O)c1ccccc1NC(=O)Cc1cn(OC)c2ccccc12 .
OUTPUT: < 4.52

---

MEASUREMENT_NOTES: Inhibition of HIV-1 reverse transcriptase RNA-dependent DNA polymerase activity assessed as reduction in dTTP incorporation using poly(rA)/oligo(dT) as template/primer incubated for 1 hr followed by transferring into streptavidin plate for 1 hr by absorbance based analysis
Parameters: species or system Human immunodeficiency virus 1
Listed compounds paired with reported pIC50
pIC50 is defined as minus the log10 of a concentration measured in mol/L.

| STRUCTURE | MEASURED_PROPERTY | QUANTITATIVE_RESULT |
| --- | --- | --- |
| CCCCOn1cc(CC(=O)Nc2ccncc2Cl)c2ccccc21 | pIC50 | 7.10 |
| CCCOn1cc(CC(=O)Nc2ccncc2Cl)c2ccccc21 | pIC50 | 6.96 |

# input for lookup
INPUT: So what's the measured pIC50 for this one? CCCOn1cc(CC(=O)Nc2ccccc2Cl)c2ccccc21
OUTPUT: 6.57

---

Test system: HEK-293T
MEASUREMENT_NOTES: Cytotoxicity against human HEK 293T cells assessed as cell viability at 30 uM measured after 48 hrs by Celltiter-glo assay
Type: cell-based
Listed compounds paired with reported Activity
Answer with the value and then the unit.

Below are worked cases with known answers.
| COMPOUND | TARGET_OF_ASSAY | Activity |
| --- | --- | --- |
| COc1ccc(NC(=O)Cc2cn(OC)c3ccccc23)cc1 | HEK-293T | 86.09% |
| COn1cc(CC(=O)Nc2ccccc2C)c2ccccc21 | HEK-293T | 62.74% |
| COn1cc(CC(=O)Nc2ccc(Cl)cc2)c2ccccc21 | HEK-293T | 51.01% |
| COn1cc(CC(=O)Nc2ccccc2Br)c2ccccc21 | HEK-293T | 83.48% |
| CCOn1cc(CC(=O)Nc2ccccc2C(=O)OC)c2ccccc21 | HEK-293T | 52.76% |

INPUT: Which Activity reading was recorded for the compound COC(=O)c1ccc(NC(=O)Cc2cn(OC)c3ccccc23)cc1 ?
OUTPUT: 72.64%

INPUT: # iterate: COn1cc(CC(=O)Nc2ccc(C)c(C)c2)c2ccccc21
OUTPUT: 51.62%

INPUT: Next: COc1ccccc1NC(=O)Cc1cn(OC)c2ccccc12
OUTPUT: 59.57%

---

Test system: Human immunodeficiency virus 1
Type: functional, organism-based, HEK293T
MEASUREMENT_PARAMETERS: hek293t
MEASURED_PROPERTY: EC50 (nM)
Could you give me the number in nM? Just the number is fine.

| STRUCTURE | QUANTITATIVE_RESULT |
| --- | --- |
| O=C1Nc2ccc(Cl)cc2[C@@](C#CC2CC2)(C(F)(F)F)O1 | 120 |

INPUT: For the compound shown here, CCCCOn1cc(CC(=O)Nc2ccncc2Cl)c2ccccc21 , give the reported EC50.
OUTPUT: 1420

---

Test system: Human immunodeficiency virus 1
MEASUREMENT_NOTES: Antiviral activity against VSVG/HIV-1 harboring reverse transcriptase K103N mutant infected in human HEK 293T cells assessed as inhibition of virus replication preincubated with cells for 15 mins prior to viral infection and measured at 48 hrs post-infection by luciferase reporter gene assay
Type: functional, organism-based, HEK293T
MEASUREMENT_PARAMETERS: hek293t
MEASURED_PROPERTY: pEC50
Please treat pEC50 as minus the base-10 logarithm of the molar concentration.

INPUT: Value lookup for pEC50; key = Cc1ccnc2c1NC(=O)c1cccnc1N2C1CC1
OUTPUT: 5.85

---

Test system: HEK-293T
MEASUREMENT_NOTES: Cytotoxicity against human HEK 293T cells assessed as reduction in cell viability measured after 48 hrs by Celltiter-glo assay
Assay type: cell-based
MEASURED_PROPERTY: CC50

| MOLECULE | RESULT |
| --- | --- |
| CCOn1cc(CC(=O)Nc2ccccc2C(=O)OC)c2ccccc21 | > 30 µM |
| Cc1ccnc2c1NC(=O)c1cccnc1N2C1CC1 | > 30 µM |
| COn1cc(CC(=O)Nc2ccc(C)cc2)c2ccccc21 | > 30 µM |
| COn1cc(CC(=O)Nc2ccccc2C)c2ccccc21 | > 30 µM |
| CCCCCCCCCCOn1cc(CC(=O)Nc2ccccc2Cl)c2ccccc21 | > 30 µM |
| COn1cc(CC(=O)Nc2ccc([N+](=O)[O-])cc2)c2ccccc21 | > 30 µM |

INPUT: CC50 for COC(=O)c1ccccc1NC(=O)Cc1c[nH]c2ccccc12 ?
OUTPUT: > 30 µM

INPUT: Next: COC(=O)c1ccccc1NC(=O)CC1CNc2ccccc21 (stereo not drawn)
OUTPUT: > 30 µM

INPUT: Same question for COC(=O)c1cccc(NC(=O)Cc2cn(OC)c3ccccc23)c1 please.
OUTPUT: > 30 µM

INPUT: How about CCCOn1cc(Cc2ccncc2)c2ccccc21 ?
OUTPUT: > 30 µM

INPUT: Another: COc1cccc(NC(=O)Cc2cn(OC)c3ccccc23)c1
OUTPUT: > 30 µM

INPUT: // same read-out, input: COn1cc(CC(=O)Nc2cc(C)cc(C)c2)c2ccccc21
OUTPUT: > 30 µM

INPUT: Then what about the molecule COn1cc(CC(=O)Nc2ccccn2)c2ccccc21 ?
OUTPUT: > 30 µM

---

Overview of reported selectivity ratio across a group of compounds:
MEASUREMENT_NOTES: Selectivity index, ratio of CC50 for human HEK 293T cells to EC50 for VSVG/wild type HIV1 infected in human HEK 293T cells
Assay type: toxicity, cell-based
MEASUREMENT_PARAMETERS: read-out: Ratio CC50/EC50

See these solved cases before continuing.
| STRUCTURE | selectivity ratio |
| --- | --- |
| CCCOn1cc(CC(=O)Nc2ccccc2C(=O)OC)c2ccccc21 | > 4.48 |
| COn1cc(CC(=O)Nc2ccccc2Br)c2ccccc21 | > 9.38 |
| O=C(Cc1cn(OCCc2ccccc2)c2ccccc12)Nc1ccccc1Cl | > 5.45 |
| CCOn1cc(CC(=O)Nc2ccccc2C(=O)OC)c2ccccc21 | > 5.26 |
| COn1cc(CC(=O)Nc2ccccc2I)c2ccccc21 | > 6.82 |

Let us move to another entry and its selectivity ratio.
INPUT: Please give the measured selectivity ratio for this compound: CCCCCCOn1cc(CC(=O)Nc2ccccc2Cl)c2ccccc21
OUTPUT: > 29.4

---

Tested on: HEK-293T
MEASUREMENT_NOTES: Cytotoxicity against human HEK 293T cells assessed as cell viability at 30 uM measured after 48 hrs by Celltiter-glo assay
Assay type: cell-based
Classify by measured Activity: rule met if it is equal to or exceeds 60%, rule not met if it is smaller.

Study these solved cases before continuing.
| MOLECULE | CATEGORY |
| --- | --- |
| CCc1ccccc1NC(=O)Cc1cn(OC)c2ccccc12 | rule met |
| COC(=O)c1ccccc1NC(=O)CC1CNc2ccccc21 (stereo unspecified) | rule met |
| CCCOn1cc(Cc2c(Cl)cncc2Cl)c2ccccc21 | rule met |
| O=C(Cc1cn(OCCc2ccccc2)c2ccccc12)Nc1ccccc1Cl | rule not met |
| CCCCCCOn1cc(CC(=O)Nc2ccccc2Cl)c2ccccc21 | rule not met |
| COn1cc(CC(=O)Nc2ccc(C)cc2)c2ccccc21 | rule not met |

INPUT: Entry COn1cc(CC(=O)Nc2ccccc2I)c2ccccc21 : is its Activity no less than 60%?
OUTPUT: rule met

INPUT: How about COC(=O)c1cccc(NC(=O)Cc2cn(OC)c3ccccc23)c1 ?
OUTPUT: rule not met

INPUT: Check COC(=O)c1ccccc1NC(=O)Cc1c[nH]c2ccccc12 too.
OUTPUT: rule met

INPUT: Try CCCOn1cc(CC(=O)Nc2ccccc2C(=O)OC)c2ccccc21 next.
OUTPUT: rule not met

INPUT: Similarly, CCCCCCCCCCOn1cc(CC(=O)Nc2ccccc2Cl)c2ccccc21 ?
OUTPUT: rule not met

---

Test system: HEK-293T
MEASUREMENT_NOTES: Cytotoxicity against human HEK 293T cells assessed as reduction in cell viability measured after 48 hrs by Celltiter-glo assay
Assay type: cell-based
MEASURED_PROPERTY: CC50 (µM)
Write the number in µM without appending the unit.

Study these solved cases before continuing.
| STRUCTURE | QUANTITATIVE_RESULT |
| --- | --- |
| CCCOn1cc(CC(=O)Nc2ccncc2F)c2ccccc21 | 14.1 |
| CCCCCCCCCOn1cc(CC(=O)Nc2ccccc2Cl)c2ccccc21 | 28.9 |
| COn1cc(CC(=O)Nc2ccncc2)c2ccccc21 | 14.3 |
| CC(=O)On1cc(CC(=O)Nc2ccccc2Cl)c2ccccc21 | 28.1 |
| CCCOn1cc(CC(=O)Nc2ccncn2)c2ccccc21 | 17.9 |

INPUT: Notebook: pull reported CC50 for HEK-293T, entry CCCOn1cc(CC(=O)Nc2ccccc2C(F)(F)F)c2ccccc21
OUTPUT: 24.9

INPUT: Thanks! And CCOn1cc(CC(=O)Nc2ccccc2Cl)c2ccccc21 ?
OUTPUT: 20.8

INPUT: Follow-up entry: CCCCCOn1cc(CC(=O)Nc2ccncc2Cl)c2ccccc21
OUTPUT: 22

INPUT: Now consider CCCCOn1cc(CC(=O)Nc2ccccc2Cl)c2ccccc21 and answer again.
OUTPUT: 29.1

INPUT: Query CCCOn1cc(CC(=O)Nc2ccncc2Cl)c2ccccc21 next
OUTPUT: 16.4

The reported measurements were obtained from ChEMBL document CHEMBL4765253.
